Record: Ki reported on CDK2 (Homo sapiens).
Counter-ions that a name gives are not always drawn.

molecule=CC[Si](C)(C)C1(C(=O)Nc2n[nH]c3c2CN(C(=O)N[C@H](CO)c2ccccc2)C3(C)C)CCC1 metric_name=Ki reported_value="≥ 1000 nM"
molecule="CC1(C)c2[nH]nc(NC(=O)C3([Si](C)(C)C)CCC3)c2CN1C(=O)N[C@H](C(=O)O)c1ccccc1 [IV-403 (sodium salt)]" metric_name=Ki reported_value="≥ 1000 nM"
molecule=CC(C)(O)C[C@@H](NC(=O)N1Cc2c(NC(=O)C3([Si](C)(C)C)CCC3)n[nH]c2C1(C)C)c1ccccc1F metric_name=Ki reported_value="≥ 1000 nM"
molecule=CN(C(=O)N1Cc2c(NC(=O)C3([Si](C)(C)C)CCC3)n[nH]c2C1(C)C)[C@H](CO)c1ccccc1 metric_name=Ki reported_value="≥ 1000 nM"

Dear colleague, could you send me Ki for each of the items below? Thanks.
1. CC1(C)c2[nH]nc(NC(=O)C3([Si](C)(C)C)CCC3)c2CN1C(=O)N[C@H](CCCO)c1ccccc1
2. CC1(C)c2[nH]nc(NC(=O)C3([Si](C)(C)C)CCC3)c2CN1C(=O)N[C@H](CC1(O)CC1)c1ccccc1

Data returned:
1: ≥ 1000 nM; 2: ≥ 1000 nM

Data request: Which Ki reading was recorded for the molecule `C[C@@H](Oc1ccccc1)C(=O)N1Cc2c(NC(=O)C3([Si](C)(C)C)CCC3)n[nH]c2C1(C)C` ?
Data returned: ≥ 1000 nM
